folding stability dG unfold values, listed per item
Experiment: folding stability dG unfold (combined trypsin and chymotrypsin); higher = more stable
Note: unit kcal/mol is implicit; provide only the numeric part.

Answered cases to consult:
macromolecule-sequence | scale-unit | measured
SAHITISIEVPLPNLKGQTPEEAREVAKDKAREIAKMFNPEFGIKVKEVEVEPHPDEGWLKVDITFEPKSAG [r14_310_TrROS] | kcal/mol | 0.824
SAGGMELEKAIEFAKETGKEVEIEIEVEDENGKPFVIRVRVKVKPDPEDPNKYKIEVEVEVFPKEELSAGGS [r16_323_TrMRF] | kcal/mol | 4.08
SSSAEIRAYRFPDFWLVEIDLRDGDKLVGTAVFPNDGSVSLEEVAEAFRAAHPDFDVEISAIEPVPPPPPSA [r9_364_TrMRF] | kcal/mol | 2.01
SAPKIDSISIMWPGNHWYISIWYPDKNGEPMKEVMFPFESPEDLKDQIEELSPPGDVTVDIYPMPPDAFSAG [r14_964_TrROS] | kcal/mol | 1.51
SIYIMLPVPPGKPYKLSIEIEMPDNGRPYEYDGTFNPENGWVMFPVRFPDNGHPIPPEDFKVKVELEPPKSA [r9_928_TrROS] | kcal/mol | 2.07

Name the recorded folding stability dG unfold for SAGGSLPPSTVIESEIVIEIEIENNISGIPGKTEKAFIIIKVTVTTDENGNLSSSVEIEIIPAKDLSAGGSA [r2_448_TrMRF] .
3.26

Report folding stability dG unfold for SAGGSAGGSAGGSSSSASVEVKTETSVSYDPSTGRTYTTTTSKYPLTNTTVTTTTTDPTSAGGSAGGSAGGS [r10_187_JUSTAS] please.
0.621

Sample SAGGSAGGSSMTFEVVEIERPPGDEIRVLVKREDGREFAEITLPPGASPEEIERAVREAVEAESAGGSAGGS [r12_798_JUSTAS] — what was its folding stability dG unfold?
1.26

So what's the measured folding stability dG unfold for this one? SAGGSAGGSAGRAEIPITFNGKKVEVEVEPDPDNGHPIITIKFGNKPVVINPDGQIRPFPSAGGSAGGSAGG [r11_732_TrROS]
0.0302

Fill blank: measured folding stability dG unfold of the sequence SAGMTLTLELPVPPDMSEEEARALALARVREEVAALSPGGATVTPVAVSVDPETGTVSLEVEVEVPPLASAG [r5_146_JUSTAS] is ____.
1.35

# lookup: folding stability dG unfold of SAGGSAGGSAGSMPVTVTERVVTSETPLPTDELAVKTTVTYPDGTAADFTRLLPPDAPLESAGGSAGGSAGG [r11_429_JUSTAS]
0.158

# get_value(readout='folding stability dG unfold', item= SAGGSAGGSAFVWNPDTGTFIQLDPNDGTIEVFEIENDNDGKLEPIGTVEVDPDDPDKGTITSAGGSAGGSA [r18_448_TrROS] )
1.5

For the sequence SAPSPSVPLDPVTTETVLVKDPEKGEEITLEILTDANSDEVLVRITYPDGSEVVLRLKKEEVEKVIEALSAG [r14_240_JUSTAS] , what folding stability dG unfold is on record?
3.41
